- target or test system: UniProtKB P10275
- Sequence (whole entry): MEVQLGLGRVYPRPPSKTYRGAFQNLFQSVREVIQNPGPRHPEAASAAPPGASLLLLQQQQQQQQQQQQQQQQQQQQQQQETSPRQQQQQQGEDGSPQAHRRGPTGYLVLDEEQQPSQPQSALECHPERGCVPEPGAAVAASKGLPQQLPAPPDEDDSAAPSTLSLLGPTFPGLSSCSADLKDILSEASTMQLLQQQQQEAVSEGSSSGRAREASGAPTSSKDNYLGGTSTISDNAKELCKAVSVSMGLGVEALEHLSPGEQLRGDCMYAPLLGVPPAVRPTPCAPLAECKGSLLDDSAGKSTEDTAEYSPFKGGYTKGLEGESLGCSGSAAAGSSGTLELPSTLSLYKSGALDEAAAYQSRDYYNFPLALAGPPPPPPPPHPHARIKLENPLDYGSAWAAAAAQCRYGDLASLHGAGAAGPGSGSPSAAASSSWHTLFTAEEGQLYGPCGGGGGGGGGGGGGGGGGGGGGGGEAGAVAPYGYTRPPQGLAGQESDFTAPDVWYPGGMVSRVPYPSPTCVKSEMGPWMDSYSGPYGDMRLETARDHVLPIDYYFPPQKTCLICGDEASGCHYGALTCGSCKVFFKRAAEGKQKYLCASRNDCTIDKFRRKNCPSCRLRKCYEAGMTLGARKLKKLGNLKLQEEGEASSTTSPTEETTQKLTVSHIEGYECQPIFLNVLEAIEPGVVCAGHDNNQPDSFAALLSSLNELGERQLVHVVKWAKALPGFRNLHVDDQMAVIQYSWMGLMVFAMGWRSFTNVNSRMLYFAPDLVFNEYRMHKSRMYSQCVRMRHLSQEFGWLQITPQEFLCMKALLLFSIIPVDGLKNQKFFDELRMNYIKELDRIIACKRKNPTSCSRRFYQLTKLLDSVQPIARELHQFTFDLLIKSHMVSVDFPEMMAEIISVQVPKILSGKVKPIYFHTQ
- condition details: HeLa
- Description: Activity at human AR expressed in human HeLa cells after 48 hrs by transient-luciferase reporter gene assay
measure name: EC5

Use these answered entries as a reference point.
- structure smiles string: "CC1(C)C(=O)N(c2ccc(C#N)c(C(F)(F)F)c2)C(=S)N1CCCC(=O)O"
  EC5: "> 10 µM"
- structure smiles string: "CNS(=O)(=O)CCCN1C(=S)N(c2ccc(C#N)c(C(F)(F)F)c2)C(=O)C1(C)C"
  EC5: "> 10 µM"

Alright, here's another molecule for you.
Report EC5 for CC1(C)C(=O)N(c2ccc(C#N)c(C(F)(F)F)c2)C(=S)N1CCCS(=O)(=O)O please. > 10 µM
